Values compiled from ChEMBL document CHEMBL6109052.

# System: Histone deacetylase 4 (Homo sapiens)
# Sequence (P56524 whole entry): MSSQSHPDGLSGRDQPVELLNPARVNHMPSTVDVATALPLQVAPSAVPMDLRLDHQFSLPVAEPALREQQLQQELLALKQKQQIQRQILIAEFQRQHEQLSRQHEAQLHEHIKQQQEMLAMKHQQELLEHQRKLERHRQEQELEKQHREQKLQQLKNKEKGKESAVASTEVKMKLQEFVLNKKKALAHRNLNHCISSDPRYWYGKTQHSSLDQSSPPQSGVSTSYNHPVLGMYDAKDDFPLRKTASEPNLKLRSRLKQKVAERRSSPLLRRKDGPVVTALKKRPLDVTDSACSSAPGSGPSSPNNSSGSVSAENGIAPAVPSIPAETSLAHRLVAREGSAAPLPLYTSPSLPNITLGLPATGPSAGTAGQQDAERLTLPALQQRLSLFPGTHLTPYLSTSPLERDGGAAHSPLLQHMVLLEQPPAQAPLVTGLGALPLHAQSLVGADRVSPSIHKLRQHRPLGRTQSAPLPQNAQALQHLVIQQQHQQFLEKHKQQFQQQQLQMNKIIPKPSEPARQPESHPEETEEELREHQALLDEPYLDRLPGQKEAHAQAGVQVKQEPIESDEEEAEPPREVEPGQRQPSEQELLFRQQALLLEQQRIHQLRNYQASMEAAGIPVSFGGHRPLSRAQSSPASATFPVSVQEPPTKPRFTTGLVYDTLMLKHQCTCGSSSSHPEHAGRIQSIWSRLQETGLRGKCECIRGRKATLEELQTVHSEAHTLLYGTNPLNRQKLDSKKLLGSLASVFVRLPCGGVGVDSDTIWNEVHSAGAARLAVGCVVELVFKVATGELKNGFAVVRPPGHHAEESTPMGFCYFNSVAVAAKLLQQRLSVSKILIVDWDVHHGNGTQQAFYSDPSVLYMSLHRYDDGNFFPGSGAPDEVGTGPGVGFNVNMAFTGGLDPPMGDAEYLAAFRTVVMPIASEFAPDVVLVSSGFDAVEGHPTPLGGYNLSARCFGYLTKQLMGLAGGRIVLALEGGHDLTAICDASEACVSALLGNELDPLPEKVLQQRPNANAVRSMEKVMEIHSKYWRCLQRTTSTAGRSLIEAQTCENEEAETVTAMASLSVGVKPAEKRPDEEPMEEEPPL
Metric Name: IC50 (nM)
// return numeric value only (unit: nM, not printed)

Incoming: Hello, please tell me recorded IC50 for this one: Cn1c(CCCCCCC(=O)NO)nc2ccc(N(CCCl)CCCl)cc21
Outgoing: 6.4
